System: meticillin-resistant Staphylococcus aureus (MRSA)
Assay: Growth inhibition on agar with spotted peptide
Type: cell-based
Design: key: “+” designates full growth inhibition; “+/−” designates partial inhibition; “−” signifies no inhibition
Conditions: 10 μg peptide spotted
Where no end group is shown, it is not given here.
EXPERIMENTAL_READOUT: growth inhibition

SUBSTANCE | RECORDED_VALUE
LLLFLLKKRKKRKY [peptide 11] | +
KRLFKELKFSLRKY-OH [peptide 3, KRLFKELKFSLRKY] | +/−
KRLFKELLFSLRKY [peptide 4] | +/−
KRLFKKLLFSLRKY [peptide 10, KRLFKKLLFSLRKY] | +
KRLFKKLKFSLRKY-OH [peptide 9, KRLFKKLKFSLRKY] | +
KRKFHEKHHSHRGY [dh-5, C-terminal part of histatin 5, reference compound] | −

The reported measurements were obtained from patent US6638531B1.
